Reported viability at 48 h, 20 ug by item:
# assay summary: Cytotoxicity against human CEM cells expressing green fluorescent protein assessed as cell viability at 20 ug after 48 hrs by MTT assay
# Format: cell-based, CCRF-CEM
# conditions used: read-out: Activity

{"query smiles": "O=C1Nc2ccccc2[C@]12C[C@H]2CO", "viability at 48 h, 20 ug, %": 95}
{"query smiles": "Cc1ccc2c(c1)[C@]1(C[C@H]1CO)C(=O)N2", "viability at 48 h, 20 ug, %": 101}
{"query smiles": "O=C1Nc2ccc(OC(F)(F)F)cc2[C@]12C[C@H]2CO", "viability at 48 h, 20 ug, %": 72}
{"query smiles": "O=C1Nc2ccc(OC(F)(F)F)cc2[C@]12C[C@H]2CCl", "viability at 48 h, 20 ug, %": 74}
{"query smiles": "Cc1ccc2c(c1)[C@]1(C[C@H]1CCl)C(=O)N2", "viability at 48 h, 20 ug, %": 89}
{"query smiles": "O=C1Nc2ccc([N+](=O)[O-])cc2[C@]12C[C@H]2CO", "viability at 48 h, 20 ug, %": 127}
{"query smiles": "O=C1Nc2ccccc2[C@]12C[C@H]2CCl", "viability at 48 h, 20 ug, %": 87}
{"query smiles": "O=C1Nc2ccc([N+](=O)[O-])cc2[C@]12C[C@H]2CCl", "viability at 48 h, 20 ug, %": 118}

---

# assay summary: Cytotoxicity against human CEM cells expressing green fluorescent protein assessed as cell viability at 50 ug after 48 hrs by MTT assay
# Type: cell-based, CCRF-CEM
# conditions used: read-out: Activity
outcome measure: viability at 48 h, 50 ug (%)

{"query smiles": "O=C1Nc2ccccc2[C@]12C[C@H]2CO", "outcome measure": "viability at 48 h, 50 ug", "unit of measurement": "%", "reported": 92}
{"query smiles": "O=C1Nc2ccc([N+](=O)[O-])cc2[C@]12C[C@H]2CO", "outcome measure": "viability at 48 h, 50 ug", "unit of measurement": "%", "reported": 122}
{"query smiles": "O=C1Nc2ccc(OC(F)(F)F)cc2[C@]12C[C@H]2CCl", "outcome measure": "viability at 48 h, 50 ug", "unit of measurement": "%", "reported": 37}
{"query smiles": "Cc1ccc2c(c1)[C@]1(C[C@H]1CO)C(=O)N2", "outcome measure": "viability at 48 h, 50 ug", "unit of measurement": "%", "reported": 100}
{"query smiles": "O=C1Nc2ccccc2[C@]12C[C@H]2CCl", "outcome measure": "viability at 48 h, 50 ug", "unit of measurement": "%", "reported": 83}
{"query smiles": "Cc1ccc2c(c1)[C@]1(C[C@H]1CCl)C(=O)N2", "outcome measure": "viability at 48 h, 50 ug", "unit of measurement": "%", "reported": 85}
{"query smiles": "O=C1Nc2ccc([N+](=O)[O-])cc2[C@]12C[C@H]2CCl", "outcome measure": "viability at 48 h, 50 ug", "unit of measurement": "%", "reported": 103}
{"query smiles": "O=C1Nc2ccc(OC(F)(F)F)cc2[C@]12C[C@H]2CO", "outcome measure": "viability at 48 h, 50 ug", "unit of measurement": "%", "reported": 33}
